test summary: NCI Yeast Anticancer Drug Screen. Data for the mlh1 rad18 strain (AID 175)
measurement conditions: S. cerevisiae mlh1 rad18 strain growth inhibition; at 50.0 µM (retest, dose inferred, filed as 5.0); active compounds read high
About 79,000 compounds went through this panel and 15% of them were active in at least one assay; those are over-represented in the sample as a whole.
Assign class by growth inhibition: not lower than 60% means fulfilled; lower than 60% means not fulfilled.

Here's what some known entries look like.
compound: O=C1/C(=C/c2ccccc2)CCC/C1=C\c1ccc(O)c(CN2CCCCC2)c1
cat: not fulfilled

compound: O=C1Oc2ccccc2C(=O)/C1=C/N1C(=O)/C(=C/c2ccc([N+](=O)[O-])cc2)SC1=S
cat: fulfilled

compound: CCCCCCCCCCCCCCCCNC(C)c1ccccc1 (stereo unspecified)
cat: not fulfilled

compound: Cc1cc(C)c(C(=O)C(Br)C(Br)c2ccccc2)c(C)c1 (stereo unspecified)
cat: fulfilled

compound: O=C(O)C1(Cc2ccc3c(c2)CCC3)Cc2ccccc2C1=O (stereo unspecified)
cat: not fulfilled

Ask: State whether the measured growth inhibition reaches 60%, counting equality as reaching it, for `Cc1c(Cl)cc2[nH]c(C(F)(F)F)nc2c1Cl`
Result: fulfilled

Ask: State whether the measured growth inhibition reaches 60%, counting equality as reaching it, for `CCOc1c(N=Nc2ccccc2Cl)c(C)nn1C(=S)S`
Result: not fulfilled

Ask: State whether the measured growth inhibition reaches 60%, counting equality as reaching it, for `COc1ccc(C2=C(Cl)C(=O)N(c3ccc(O)cc3)C(=O)C2(Cl)Cl)cc1`
Result: fulfilled

---

test summary: NCI Yeast Anticancer Drug Screen. Data for the bub3 strain (AID 167)
measurement conditions: S. cerevisiae bub3 mutant strain, at 50.0 µM (retest, dose inferred, filed as 5.0), active compounds read high
Protocol: Growth inhibition of yeast strains with defined genetic alterations is measured as a screen for potential anti-cancer activity. Selected strains with alterations in DNA damage repair or cell cycle control were exposed to compounds and growth inhibition was measured relative to vehicle treated controls. The strain used in this assay is bub3
Compounds without any hit were thinned out: in the full panel of roughly 79,000, 15% have a hit.
readout name: growth inhibition (%)
Entry rule: numbers only, all in %.

// below: answered molecules
molecule: N#CI1OC(C(F)(F)F)(C(F)(F)F)c2ccccc21
growth inhibition [%]: 99
--
molecule: CCOc1ccc2c(c1)nc1cc(Cl)ccc1[n+]2C
growth inhibition [%]: 88
--
molecule: O=C(CCl)Oc1ccc(Sc2ccc(OC(=O)CCl)cc2)cc1
growth inhibition [%]: 99
--
molecule: Oc1c(Cl)cc(Cl)cc1C=Nc1cc(C(F)(F)F)ccc1Cl
growth inhibition [%]: 50

So, `Cc1ccc(O)c(-c2cscn2)c1` ? Its growth inhibition was 50

So, `O=[N+]([O-])c1ccc(S(=O)(=O)N/N=C/C=C/c2ccccc2)cc1` ? Its growth inhibition was 36

So, CCN(CC)CCCC(C)Nc1cc(O)c2c(c1O)C(=O)c1ccccc1C2=O (configuration not stated) ? Its growth inhibition was 98

So, Oc1ccc(C2(c3ccc(O)c(Cl)c3)CC3CCC2C3)cc1Cl (configuration not stated) ? Its growth inhibition was 98

So, `c1ccc(-c2cc(N3CCCCC3)c(-c3ccccc3)o2)cc1` ? Its growth inhibition was 12

So, `C#CC(CC(C)C)(CC(C)C)OC(=O)Nc1ccccc1` ? Its growth inhibition was 94

So, `O=C1SC(c2ccccc2)=S=C1c1ccccc1` ? Its growth inhibition was 54

So, `O=C(O)CCCCCCCCC(=O)O.[Ag]` ? Its growth inhibition was 99
